Here, each record is paired with measured self-aminoacylation data.
System: biotinyl-Val-oxazolone
Test: self-aminoacylation, catalytic enhancement (BVO) (fold over background); higher = more active; k-Seq, kA / k0A0; sequences stand for … in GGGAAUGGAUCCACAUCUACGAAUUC…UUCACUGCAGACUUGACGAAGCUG
Variants at the floor of the assay were thinned out.

SEQUENCE ENTRY	ASSAYED TARGET	self-aminoacylation
AUCCACCUAGGUCACCGGGUG [Fam2.2 aminoacylation ribozyme variant]	biotinyl-Val-oxazolone	4.47
CCACAAUUCAAGCAUUCGGUC [Fam1B.1 aminoacylation ribozyme variant]	biotinyl-Val-oxazolone	1.85
AAGUCCGCUAAUAGUCGCAAG [Fam3.1 aminoacylation ribozyme variant]	biotinyl-Val-oxazolone	2.09
CCACACUUCCCGCAAUCGGUC [Fam1B.1 aminoacylation ribozyme variant]	biotinyl-Val-oxazolone	1.78
CUACUUCAGACAAACGGUCUG [Fam1A.1 aminoacylation ribozyme variant]	biotinyl-Val-oxazolone	0.863
CUUCACCUAGGUCAUCGGGUA [Fam2.2 aminoacylation ribozyme variant]	biotinyl-Val-oxazolone	5.19
AUUCAGCUAGGUCAUCGGGAG [Fam2.2 aminoacylation ribozyme variant]	biotinyl-Val-oxazolone	1.68
AUUUCCAUGGUCAUCGAGUGA [Fam2.1 aminoacylation ribozyme variant]	biotinyl-Val-oxazolone	5.09
CUACUUGAAACAAACGGUCUG [Fam1A.1 aminoacylation ribozyme variant]	biotinyl-Val-oxazolone	0.985

###

System: biotinyl-Met-oxazolone
Assay: self-aminoacylation, catalytic enhancement (BMO) (fold over background); higher = more active; k-Seq, kA / k0A0; sequences stand for … in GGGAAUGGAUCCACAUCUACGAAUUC…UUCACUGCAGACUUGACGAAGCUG
This sample holds only a part of the variants without activity.

SEQUENCE ENTRY	self-aminoacylation
AUUACCCUGGUCAUCCAGUGG [Fam2.1 aminoacylation ribozyme variant]	1.84
AAGUUUGCUAAUCGCCGCAAG [Fam3.1 aminoacylation ribozyme variant]	1.56
AUUCACGUAGGUCAUCGGGCG [Fam2.2 aminoacylation ribozyme variant]	2.41
AUAACUCUGGUCAUCGAGUGA [Fam2.1 aminoacylation ribozyme variant]	5.54
AAGUUUGCUAAUAGUCGCAAC [Fam3.1 aminoacylation ribozyme variant]	0.904
CUAAUUCAAACAAUCCGUCUG [Fam1A.1 aminoacylation ribozyme variant]	0.635
AUAACCCUGGUCAGCGAGUGA [Fam2.1 aminoacylation ribozyme variant]	4.66
AUUCACAAAGGUCAUCGGGUG [Fam2.2 aminoacylation ribozyme variant]	9.76
ACUCACCCAGGUCAUCGGGUG [Fam2.2 aminoacylation ribozyme variant]	4.37
AAGUCUGUUAAUAGUCGCAAG [Fam3.1 aminoacylation ribozyme variant]	1.03
AAGUUUGAUAAUCGUCGCAAG [Fam3.1 aminoacylation ribozyme variant]	1.25
AUUCACCUAGGUCAUCGGUAG [Fam2.2 aminoacylation ribozyme variant]	0.838
AUCCACCUAGGGCAUCGGGUG [Fam2.2 aminoacylation ribozyme variant]	4.46
CCACACUUCAUGCGAUCGGUC [Fam1B.1 aminoacylation ribozyme variant]	0.828
ACUACCCUGUUCAUCGAGUGA [Fam2.1 aminoacylation ribozyme variant]	3.17
AUGUUUGAUAAUAGUCGCAAG [Fam3.1 aminoacylation ribozyme variant]	1.35
CCACACUUCAAGCAAGCGGAC [Fam1B.1 aminoacylation ribozyme variant]	1.16
AUUCACCUAGGUUAUCGGGUA [Fam2.2 aminoacylation ribozyme variant]	2.55
